# Assayed target: HLA-A*03:01
# Test method notes: IEDB peptide-MHC binding, purified MHC/direct/fluorescence; filed as Kd, often an IC50 or EC50 that approximates it; bounds were set here for any values at or beyond the usual limits of such assays
# Assay conditions: source organism: Lassa virus Josiah
pKd: −log10 of the molar value.
Endpoint: pKd

Sure, the documented pKd for `NHYLCLNCL` is ≤ 4.70

* * *

# Assayed target: HLA-B*58:01
# Test method notes: IEDB peptide-MHC binding, purified MHC/competitive/fluorescence; filed as Kd, often an IC50 or EC50 that approximates it; bounds were set here for any values at or beyond the usual limits of such assays
# Assay conditions: source organism: Escherichia coli O139:H28 str. E24377A
Endpoint: pKd
Scale note: pKd = -log10(concentration in M).

Query `LAAEEILTL` on HLA-B*58:01; pKd returned: 6.13

* * *

# Assayed target: HLA-A*24:02
# Test method notes: IEDB peptide-MHC binding, purified MHC/competitive/radioactivity; filed as Kd, often an IC50 or EC50 that approximates it; bounds were set here for any values at or beyond the usual limits of such assays
# Assay conditions: source organism: Mammarenavirus guanaritoense
Endpoint: pKd
Scale for pKd: -log10 of concentration given in mol/L; no unit attached.

A selection of reference data follows.
EFFDCFKYIL; 5.06
FFLPIFSEF; 7.49

Then there is this sequence:
Reported pKd for `RFFLPIFSEF` was 7.99

* * *

# Assayed target: HLA-A*32:07
# Test method notes: IEDB peptide-MHC binding, purified MHC/competitive/fluorescence; filed as Kd, often an IC50 or EC50 that approximates it; bounds were set here for any values at or beyond the usual limits of such assays
# Assay conditions: source organism: Yersinia pestis Nepal516
Endpoint: pKd
Convention used: pKd is expressed as -log10 of the molar concentration.

The recorded pKd for entry `MLYPLLWMF` equals 6.22

* * *

# Assayed target: HLA-A*02:01
# Test method notes: IEDB peptide-MHC binding, purified MHC/competitive/fluorescence; filed as Kd, often an IC50 or EC50 that approximates it; bounds were set here for any values at or beyond the usual limits of such assays
# Assay conditions: source organism: Vaccinia virus Copenhagen
Endpoint: pKd
Scale for pKd: -log10 of concentration given in mol/L; no unit attached.

// field: pKd; key: `LNIMNKLNI` ; value = 6.39

* * *

# Assayed target: HLA-B*35:01
# Test method notes: IEDB peptide-MHC binding, purified MHC/competitive/fluorescence; filed as Kd, often an IC50 or EC50 that approximates it; bounds were set here for any values at or beyond the usual limits of such assays
# Assay conditions: source organism: Salmonella enterica subsp. enterica serovar Typhi
Endpoint: pKd
On this scale, pKd is minus log10 of a concentration expressed in M (mol/L).

Form field pKd, entry `HVCYFSHPY` : 9.15

* * *

# Assayed target: HLA-B*15:17
# Test method notes: IEDB peptide-MHC binding, purified MHC/competitive/fluorescence; filed as Kd, often an IC50 or EC50 that approximates it; bounds were set here for any values at or beyond the usual limits of such assays
# Assay conditions: source organism: Escherichia coli
Endpoint: Kd

Tested on HLA-B*15:17, the item `MFWKLPPWL` showed Kd equal to ≥ 20 µM

* * *

# Assayed target: HLA-A*26:01
# Test method notes: IEDB peptide-MHC binding, purified MHC/direct/fluorescence; filed as Kd, often an IC50 or EC50 that approximates it; bounds were set here for any values at or beyond the usual limits of such assays
# Assay conditions: source organism: Influenza A virus(A/swine/Henan/3/2004(H9N2))
Endpoint: Kd

sequence `THFQRKRRV` , Kd observed: ≥ 20 µM

* * *

# Assayed target: HLA-B*44:02
# Test method notes: IEDB peptide-MHC binding, purified MHC/direct/fluorescence; filed as Kd, often an IC50 or EC50 that approximates it; bounds were set here for any values at or beyond the usual limits of such assays
# Assay conditions: source organism: Lassa virus Josiah
pKd: −log10 of the molar value.
Endpoint: pKd

// `NHYLCLNCL` : pKd value = ≤ 4.70

* * *

# Assayed target: HLA-B*48:01
# Test method notes: IEDB peptide-MHC binding, purified MHC/direct/fluorescence; filed as Kd, often an IC50 or EC50 that approximates it; bounds were set here for any values at or beyond the usual limits of such assays
# Assay conditions: source organism: Mammarenavirus lassaense
Endpoint: Kd

Short answer on HLA-B*48:01 for `KHDEEFCDM` , Kd: ≥ 20 µM

* * *

# Assayed target: HLA-A*29:02
# Test method notes: IEDB peptide-MHC binding, purified MHC/competitive/fluorescence; filed as Kd, often an IC50 or EC50 that approximates it; bounds were set here for any values at or beyond the usual limits of such assays
# Assay conditions: source organism: Listeria monocytogenes EGD-e
Endpoint: Kd (nM)
Response body: numeric value in nM, unit text excluded.

Lab book: Kd of `YYFDIYNKQ` noted as 73

* * *

# Assayed target: HLA-A*11:01
# Test method notes: IEDB peptide-MHC binding, purified MHC/competitive/radioactivity; filed as Kd, often an IC50 or EC50 that approximates it; bounds were set here for any values at or beyond the usual limits of such assays
# Assay conditions: source organism: Hepacivirus hominis
Endpoint: Kd

Kd on HLA-A*11:01 for `RDWAHNSL` is ≥ 87 µM

* * *

# Assayed target: HLA-B*46:01
# Test method notes: IEDB peptide-MHC binding, purified MHC/competitive/fluorescence; filed as Kd, often an IC50 or EC50 that approximates it; bounds were set here for any values at or beyond the usual limits of such assays
# Assay conditions: source organism: Mycobacterium tuberculosis variant bovis BCG str. Pasteur 1173P2
Endpoint: Kd

The value of Kd measured for the sequence `AEDLADHHV` turned out to be ≥ 20 µM

* * *

# Assayed target: HLA-A*11:01
# Test method notes: IEDB peptide-MHC binding, purified MHC/competitive/fluorescence; filed as Kd, often an IC50 or EC50 that approximates it; bounds were set here for any values at or beyond the usual limits of such assays
# Assay conditions: source organism: Vibrio parahaemolyticus K5030
pKd: −log10 of the molar value.
Endpoint: pKd

Memo: `NSSYWRQGY` , reported pKd: ≤ 4.70

* * *

# Assayed target: HLA-A*01:01
# Test method notes: IEDB peptide-MHC binding, purified MHC/direct/fluorescence; filed as Kd, often an IC50 or EC50 that approximates it; bounds were set here for any values at or beyond the usual limits of such assays
# Assay conditions: source organism: Homo sapiens
Endpoint: pKd
pKd (log units): -log10 of the concentration in mol/L.

Reported pKd ( `YTAVVPLVY` ) = 6.84

* * *

# Assayed target: HLA-A*11:01
# Test method notes: IEDB peptide-MHC binding, purified MHC/direct/fluorescence; filed as Kd, often an IC50 or EC50 that approximates it; bounds were set here for any values at or beyond the usual limits of such assays
# Assay conditions: source organism: dengue virus type 4
Endpoint: pKd
On this scale, pKd is minus log10 of a concentration expressed in M (mol/L).

Entry `KVASAGISY` under HLA-A*11:01 had pKd of 7.28

* * *

# Assayed target: HLA-A*02:01
# Test method notes: IEDB peptide-MHC binding, purified MHC/competitive/fluorescence; filed as Kd, often an IC50 or EC50 that approximates it; bounds were set here for any values at or beyond the usual limits of such assays
# Assay conditions: source organism: Orthohantavirus andesense
Endpoint: Kd

Form field Kd, entry `STGKSIKFK` : ≥ 20 µM

* * *

# Assayed target: HLA-B*39:01
# Test method notes: IEDB peptide-MHC binding, purified MHC/competitive/fluorescence; filed as Kd, often an IC50 or EC50 that approximates it; bounds were set here for any values at or beyond the usual limits of such assays
# Assay conditions: source organism: Escherichia coli 536
Endpoint: Kd

Item: `RVGIYFGMK` | Kd: ≥ 20 µM

* * *

# Assayed target: HLA-B*48:01
# Test method notes: IEDB peptide-MHC binding, purified MHC/direct/fluorescence; filed as Kd, often an IC50 or EC50 that approximates it; bounds were set here for any values at or beyond the usual limits of such assays
# Assay conditions: source organism: Escherichia coli O157:H7
Endpoint: Kd

Sample `RGRGVAIHR` ; Kd observed: ≥ 20 µM

* * *

# Assayed target: HLA-B*18:01
# Test method notes: IEDB peptide-MHC binding, purified MHC/competitive/fluorescence; filed as Kd, often an IC50 or EC50 that approximates it; bounds were set here for any values at or beyond the usual limits of such assays
# Assay conditions: source organism: Cryptosporidium parvum Iowa II
Endpoint: Kd

Recorded Kd (sequence `VYWENEVSI` ): ≥ 20 µM

* * *

# Assayed target: HLA-B*51:01
# Test method notes: IEDB peptide-MHC binding, purified MHC/competitive/radioactivity; filed as Kd, often an IC50 or EC50 that approximates it; bounds were set here for any values at or beyond the usual limits of such assays
# Assay conditions: source organism: Vaccinia virus WR
Reported pKd values for the following sequences.
Hey, just a heads up that pKd is the negative log base 10 of the concentration in molar.

pKd for HLA-B*51:01 with input `LPNVQFVDI` equals 7.49

The sequence `DPPIPYSRV` , tested on HLA-B*51:01, showed pKd of 7.51

Tested system HLA-B*51:01; pKd recorded for `EPSGNNYHI` was 6.16

Measured values drawn from the Immune Epitope Database (IEDB) for this set.
